Just for reference, PubChem BioAssay (NCATS) is where these values come from.

- protocol_details: qHTS Assay for Identifying Gametocytocidal Compounds (AID 743244);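 note: % is set by controls: 0 for no effect and ±100 for the full control effect; actives lower the fluorescent signal which means gametocytes are killed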
- condition_info: P. falciparum 3D7 stage III-V gametocytes, alamarBlue, 72 h; stronger effect = lower value
Results filed as inconclusive are left out.
Entries and their max response values follow.
recorded_endpoint: max response (%)

> print(dat)
                            chemical.string  recorded.endpoint  recorded.value
1  O=C(O)c1ccc(-c2cc3cccnc3c(-c3ccc4nonc4c3)n2)cc1       max response            33.8
2    CN(C)Cc1ccc(-c2nc3cccc4c3n2CCNC4=O)cc1       max response              13
3  CC(C)(C(=O)NCC(F)(F)C(F)(F)F)C(=O)N[C@@H]1C(=O)Nc2ccccc2-c2ccccc21       max response             8.7

* * *

- protocol_details: qHTS of pediatric cancer cell lines to identify multiple opportunities for drug repurposing: Primary screen for MG 63 (6-TG R) cells (AID 1347105); note: nearly all actives have a fitted effect of over 50% in size
- condition_info: MG 63 (6-TG R) viability, CellTiter-Glo, 48 h; series mostly up to 46 µM
Inconclusive results are not listed. Active and inactive are the calls of the source. Calls come from the whole dose curve; as a rule, active = well fitted cell-killing curve with a large enough effect; inconclusive = small, poorly fitted or top-dose-only effect; inactive = no such curve, though single readings can be large or run the other way.
Outcomes: active, inactive

compound	label_value
COc1cc2nc(-c3ccc(N4CCN(C)CC4)cc3)nc(NCCN3CCOCC3)c2cc1OC	active
N#Cc1ccc(NC(=O)Nc2ccccc2Br)c2n[nH]nc12	inactive
COc1ccccc1N1CCN(CCCNc2cc(=O)n(C)c(=O)n2C)CC1	inactive
CC(C)(C(=O)NCC(F)(F)C(F)(F)F)C(=O)N[C@@H]1C(=O)Nc2ccccc2-c2ccccc21	inactive
O=C1C[C@@H](c2ccc(O)cc2)Oc2cc(O)cc(O)c21	inactive
CC(=O)N[C@@H](CS)C(=O)O	inactive
COc1cc(NC(=O)c2ccc(-c3ccc(Cl)cc3)o2)cc(OC)c1	active
CS(=O)(=O)N(Cc1ccco1)CC(O)Cn1c2ccccc2c2ccccc21 (stereo not drawn)	inactive
CC(C)(C)C(=O)Oc1ccc2c(c1)nc(NC(=O)c1cccc([N+](=O)[O-])c1)n2CCCO	inactive
CO[C@H]1C[C@@H]2CC[C@@H](C)[C@@](O)(O2)C(=O)C(=O)N2CCCC[C@@H]2C(=O)O[C@H]([C@H](C)C[C@@H]2CC[C@H](OP(C)(C)=O)[C@H](OC)C2)CC(=O)[C@H](C)C=C(C)[C@@H](O)[C@@H](OC)C(=O)[C@H](C)C[C@H](C)C=CC=CC=C1C	inactive
CCN(CC)CCOc1ccc(C(=C(Cl)c2ccccc2)c2ccccc2)cc1	inactive
NS(=O)(=O)c1ccc(NC2=CC(=O)c3ccccc3C2=O)cc1	inactive
Cc1nnc(C(C)C)n1C1C[C@H]2CC[C@@H](C1)N2CC[C@H](NC(=O)C1CCC(F)(F)CC1)c1ccccc1 (stereo partly drawn)	inactive
Cc1cccc(Nc2nc(-c3ccncc3)cs2)c1	inactive
CC(=O)O[C@]1(C(C)=O)CC[C@H]2[C@@H]3C=C(Cl)C4=CC(=O)[C@@H]5C[C@@H]5[C@]4(C)[C@H]3CC[C@@]21C	inactive
CC(C)(C)COc1ccc(-n2cc(C(=O)O)cn2)cc1C#N	inactive
CCOC(=O)O[C@]1(C(=O)OCCl)CC[C@@H]2[C@H]3CCC4=CC(=O)C=C[C@]4(C)[C@@H]3[C@@H](O)C[C@@]21C	inactive
CC(=O)Nc1ccc([C@H](C)C(=O)Nc2ncc(C(C)C)s2)cc1	active
